targetSystem: LASV A19 (lineage II) glycoprotein (Lassa virus, strain A19)
experimentDescription: cell-based or functional assay

# binder, IC80 (neutralization) [µg/mL]
records = [
    ("8.11G (antibody, V domains shown) VH: QVQLQESGPGLVKPSETLSLTCSISGVSTRNYYWSWIRQSPGKGLEWIGYIFNIGTTNYNPSLKSRLTISVDTSKNQFSLKITSVTAADTAVYYCASGFEYGDYTFDYWGQGTPVTVSS VL: EIVLTQSPATLSVSPGGRASLSCRASQSIGDKLSWYQQKPGQAPRLVIYGAYTRATDISPRFSGSRSGTDFNLTISRMQSGDFAVYFCQQYENWPRTFGQGTKLEIKR", 4.59),
    ("37.2G (antibody, V domains shown) VH: EVQLVESGGGLVKPGGSRRLSCAASGFTFSRDTMTWVRQAPGKGLEWVASISSGSSDINYADSVKGRFTISRDNGKNSLYLHMNSLRADDTAIYYCARDPRSGISGRYGMDVWGQGTTVTVSS VL: DIVLTQSPGTLSLSPGERATLSCRASQSVNSIFLAWYQQKPGQAPRLLIYGASSRATGIPDRFSGSGSGTDFTLTISRLEPEDFAVYYCQQYHSSPKLTFGGGTKVEIKR", 10),
    ("37.2D (antibody, V domains shown) VH: EVQLVQSGAEVKKPGASVKVSCKASGYTFTKYGISWVRQAPGQGLEWMGWISAFNGYTRYGQRFQGKVTMTTDTSTNTASLEVRTLTSNDTAVYYCARQYPDQYSSSGWPRLFAMDVWGQGTTVIVSP VL: ETTLTQSPATLSVSPGETATLSCRASQNVINNLAWYQQKPGQAPRLLIYGASTRATGIPARFSGSGSGTEFTLTISSMQSEDFAVYYCQQYNDWPRSFGQGTRLDIRR", 1.15),
]
